Cited source: the supplement of paper PMC7877785

experiment: self-splicing fitness, log relative to wild type (ln ratio); higher = more splicing; Tetrahymena group I intron in knt gene, E. coli kanamycin selection, DiMSum; sequences stand for … in CUCUCU…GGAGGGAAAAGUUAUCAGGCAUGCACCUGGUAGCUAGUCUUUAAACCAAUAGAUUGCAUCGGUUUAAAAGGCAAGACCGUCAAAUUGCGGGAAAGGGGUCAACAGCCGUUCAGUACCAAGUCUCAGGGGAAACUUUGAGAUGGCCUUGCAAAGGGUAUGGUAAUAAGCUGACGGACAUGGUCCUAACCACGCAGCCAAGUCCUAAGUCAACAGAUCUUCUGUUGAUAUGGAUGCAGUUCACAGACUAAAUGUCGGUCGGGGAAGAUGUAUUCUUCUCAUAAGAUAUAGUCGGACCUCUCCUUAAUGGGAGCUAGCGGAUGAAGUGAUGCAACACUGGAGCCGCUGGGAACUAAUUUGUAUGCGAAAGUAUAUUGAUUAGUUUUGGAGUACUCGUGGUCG; conditions: 37 °C;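 further: selection with 25 µg/mL kanamycin versus none on LB agar overnight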
Label met when self-splicing fitness (ln) is at or above -0.9; otherwise label not met.

For orientation, consider the following solved cases.
>  <polymer.sequence>
UGAAAGCAAUAUUACGCCGU

>  <qualitative.label>
not met

$$$$
>  <polymer.sequence>
CCGAAGCAAUAUUACGUUAC

>  <qualitative.label>
not met

$$$$
>  <polymer.sequence>
UAUUAGCAAUAUUACGAGCA

>  <qualitative.label>
met

$$$$
>  <polymer.sequence>
UUCCAGCAAUAUUACGCUUG

>  <qualitative.label>
not met

$$$$
>  <polymer.sequence>
CAUUAGCAAUAUUACGCACU

>  <qualitative.label>
met

$$$$

Lookup: Is it the case that AGUAAGCAAUAUUACGUCCA has self-splicing fitness (ln) reaching or exceeding -0.9?
Found: met

Lookup: Is it the case that CAUAAGCAAUAUUACGAUAA has self-splicing fitness (ln) reaching or exceeding -0.9?
Found: not met

Lookup: Is it the case that CCCAAGCAAUAUUACGGCCA has self-splicing fitness (ln) reaching or exceeding -0.9?
Found: not met

Lookup: Is it the case that GUAGAGCAAUAUUACGAAAU has self-splicing fitness (ln) reaching or exceeding -0.9?
Found: not met

Lookup: Is it the case that GGUAAGCAAUAUUACGGAAA has self-splicing fitness (ln) reaching or exceeding -0.9?
Found: met

Lookup: Is it the case that GUUUAGCAAUAUUACGUUGU has self-splicing fitness (ln) reaching or exceeding -0.9?
Found: not met

Lookup: Is it the case that CAUCAGCAAUAUUACGCAAU has self-splicing fitness (ln) reaching or exceeding -0.9?
Found: not met

Lookup: Is it the case that CUGGAGCAAUAUUACGACUC has self-splicing fitness (ln) reaching or exceeding -0.9?
Found: not met

Lookup: Is it the case that ACAUAGCAAUAUUACGGGGC has self-splicing fitness (ln) reaching or exceeding -0.9?
Found: not met

Lookup: Is it the case that GUAUAGCAAUAUUACGGCCU has self-splicing fitness (ln) reaching or exceeding -0.9?
Found: met

Lookup: Is it the case that CGACAGCAAUAUUACGCCGG has self-splicing fitness (ln) reaching or exceeding -0.9?
Found: met

Lookup: Is it the case that GGUUAGCAAUAUUACGACUC has self-splicing fitness (ln) reaching or exceeding -0.9?
Found: met

Lookup: Is it the case that GUCUAGCAAUAUUACGUUCG has self-splicing fitness (ln) reaching or exceeding -0.9?
Found: met

Lookup: Is it the case that GAGCAGCAAUAUUACGCGAU has self-splicing fitness (ln) reaching or exceeding -0.9?
Found: met

Lookup: Is it the case that CCUCAGCAAUAUUACGCGGG has self-splicing fitness (ln) reaching or exceeding -0.9?
Found: not met
